FYI, the data here is from ChEMBL document CHEMBL5291721.

Give measured AC50 for each item. Keep answers brief.
Target: Amine oxidase [flavin-containing] A (Homo sapiens); note: assay procedure not described here
Sequence (P21397 whole entry): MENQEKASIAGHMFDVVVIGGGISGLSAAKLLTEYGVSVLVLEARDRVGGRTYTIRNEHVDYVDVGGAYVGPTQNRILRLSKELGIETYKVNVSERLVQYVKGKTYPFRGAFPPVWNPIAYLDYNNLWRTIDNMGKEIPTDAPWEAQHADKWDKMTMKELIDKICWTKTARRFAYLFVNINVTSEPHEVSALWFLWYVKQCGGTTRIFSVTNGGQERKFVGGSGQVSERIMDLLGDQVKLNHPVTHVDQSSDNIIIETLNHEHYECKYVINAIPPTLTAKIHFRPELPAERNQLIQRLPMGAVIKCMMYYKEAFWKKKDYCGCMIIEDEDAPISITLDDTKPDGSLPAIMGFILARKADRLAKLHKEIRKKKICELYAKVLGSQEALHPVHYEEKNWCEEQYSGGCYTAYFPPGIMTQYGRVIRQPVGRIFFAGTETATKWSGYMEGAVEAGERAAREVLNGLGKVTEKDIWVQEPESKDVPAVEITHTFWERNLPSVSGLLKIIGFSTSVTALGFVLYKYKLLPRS
Type: functional
Give bare numbers, in µM.

> print(dat)
                               molecule                               system.name  reading
1  NNc1nnc(NN)c2ccccc12 [DIHYDRALAZINE]  Amine oxidase [flavin-containing] A (Homo sapiens)     26.4

# ---- query molecule ----
Recorded AC50 for `CCCCCNC(=N)N/N=C/c1c[nH]c2ccc(OC)cc12` with Amine oxidase [flavin-containing] A (Homo sapiens), please? 23.6

---

Target: Alpha-1A adrenergic receptor (Homo sapiens, UniProt P35348); note: assay procedure not described here
Sequence (P35348 whole entry): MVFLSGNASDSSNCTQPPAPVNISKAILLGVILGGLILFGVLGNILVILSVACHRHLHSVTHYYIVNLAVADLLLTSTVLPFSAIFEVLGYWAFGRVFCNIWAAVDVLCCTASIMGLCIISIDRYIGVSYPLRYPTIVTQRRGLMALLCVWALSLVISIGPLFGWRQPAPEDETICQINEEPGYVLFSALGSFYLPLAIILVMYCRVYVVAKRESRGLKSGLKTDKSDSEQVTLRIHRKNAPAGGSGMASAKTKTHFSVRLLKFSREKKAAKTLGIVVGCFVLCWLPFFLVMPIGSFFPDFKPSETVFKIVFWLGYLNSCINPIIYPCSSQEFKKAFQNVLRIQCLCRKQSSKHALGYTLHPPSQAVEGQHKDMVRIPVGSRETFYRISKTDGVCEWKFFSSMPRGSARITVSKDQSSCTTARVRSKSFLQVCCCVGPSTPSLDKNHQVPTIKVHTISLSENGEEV
Type: functional, cell-based
Please provide measured AC50 for the entries that follow.
One number for each entry, in µM.

// worked examples, AC50 included
molecule	unit-of-measurement	reading
CC(C)(C)NC[C@H](O)COc1ccccc1C1CCCC1 [PENBUTOLOL]	µM	2.54
COCc1c(C(C)C)nc(C(C)C)c(/C=C/[C@@H](O)C[C@@H](O)CC(=O)O)c1-c1ccc(F)cc1 [CERIVASTATIN]	µM	25.2

Then there is this molecule:
Quick one: AC50 of O=C(Nc1ccc(Cl)cc1)Nc1ccc(Cl)c(Cl)c1 [TRICLOCARBAN] ? 2.44

---

Measurement record for Estrogen receptor (Homo sapiens, UniProt P03372); quantity recorded: AC50.

These recorded examples may help you get a feel for the data.
> print(dat)
                                   compound  readout.name  reading
1  CC(C)(C)CC(C)(C)c1ccc(O)c(Cc2ccc(Cl)cc2Cl)c1          AC50  8.45 µM
2   OCCN1C[C@H](O)[C@@H](O)[C@H](O)[C@H]1CO          AC50  > 30 µM

Each compound below has a reported value. Please supply its AC50.
1. C=C[C@H]1C[N@@]2CC[C@H]1C[C@H]2[C@H](O)c1ccnc2ccc(OC)cc12
2. C[N+](C)(C)CCO
3. O=[N+]([O-])O[C@@H]1CO[C@H]2[C@@H]1OC[C@@H]2O [ISOSORBIDE MONONITRATE]

1. > 30 µM
2. > 30 µM
3. > 30 µM
